tested on: U2OS; test: Multiplex assay against U2OS; assay type: toxicity, cell-based; details: human, 12 h, 1 µM, compound concentration 1 uM, replicate 2
Below, each entry is listed alongside its reported Population Mitochondria Different-Phenotype (%).
reported metric: Population Mitochondria Different-Phenotype (%)

# compound, readout value
data = [
    ("CCCS(=O)(=O)Nc1ccc(F)c(C(=O)c2c[nH]c3ncc(Cl)cc23)c1F", 24),
    ("CCOC(=O)c1c(C)[nH]c2ccc3c(c12)CN1CCc2cc(OC)ccc2C1O3 (configuration not stated)", 70),
    ("COc1ccc(-c2ccc3c(N4CCOCC4)nc(N4C[C@@H](C)O[C@@H](C)C4)nc3n2)cc1CO", 20),
    ("CNc1cc(Oc2cc(C(=O)Nc3cc(N4CCN(C)CC4)cc(C(F)(F)F)c3)ccc2C)ncn1", 60),
    ("Cl.O=c1c2cccn2c2ccccc2n1CCCN1CCC(c2ccc(Cl)cc2)CC1", 56),
    ("C=CCn1c(=O)c2cnc(Nc3ccc(N4CCN(C)CC4)cc3)nc2n1-c1cccc(C(C)(C)O)n1", 5),
    ("CCc1cccc(CC)c1NC(=O)c1nn(C)c2c1CCc1cnc(Nc3ccc(C(=O)NC4CCN(C)CC4)cc3OC(F)(F)F)nc1-2", 14),
    ("Cn1nc(C(F)(F)F)cc1-c1cnc(N2CCc3cc(S(=O)(=O)Nc4c(F)cc(Cl)cc4F)cc(N4CCCC4=O)c32)nc1", 15),
    ("COc1ccc(S(=O)(=O)N(CCO)c2ccccc2CN(C)C/C=C/c2ccc(Cl)cc2)cc1.O=P(O)(O)O", 100),
    ("CCn1c(=O)c(-c2ccc(-c3cncs3)cc2Cl)cc2cnc(Nc3ccc(N4CCN(C)CC4)cc3)nc21", 17),
    ("COc1cc2ncnc(Nc3ccc(F)c(Cl)c3)c2cc1NC(=O)/C=C/CN1CCCCC1 [DACOMITINIB ANHYDROUS]", 32),
    ("CN[C@@H]1C[C@H]2O[C@@](C)([C@@H]1OC)n1c3ccccc3c3c4c(c5c6ccccc6n2c5c31)C(=O)NC4", 83),
    ("O=C1NC(=O)C(c2cnc3ccccn23)=C1c1cn2c3c(cc(F)cc13)CN(C(=O)N1CCCCC1)CC2", 16),
    ("CN(C)C(=O)C(CCN1CCC(O)(c2ccc(Cl)cc2)CC1)(c1ccccc1)c1ccccc1.Cl [LOPERAMIDE HYDROCHLORIDE]", 90),
    ("COc1cc(N2CCN(C)CC2)ccc1Nc1ncc2c(n1)N(C)c1ccccc1C(=O)N2C", 21),
    ("CCNc1cc(N[C@H]2CC[C@H](O)CC2)nc(Nc2ccc3c(ccn3Cc3ccccc3)c2)n1", 55),
    ("CN1CCC(=C2c3ccccc3CC(=O)c3sccc32)CC1.O=C(O)/C=C/C(=O)O [KETOTIFEN FUMARATE]", 12),
    ("O=C(Cc1ccc(-c2ccc(OCCN3CCOCC3)cc2)cn1)NCc1ccccc1", 21),
    ("Cc1cn(-c2cc(NC(=O)c3ccc(C)c(Nc4nccc(-c5cccnc5)n4)c3)cc(C(F)(F)F)c2)cn1", 18),
    ("Cc1cc(C)c(S(=O)(=O)N(Cc2ccc(-c3cccc(S(C)(=O)=O)c3)cc2)Cc2ccc(C(F)(F)F)o2)c(C)c1", 21),
    ("CCOc1cc(C(=O)N2CCC(N3CCN(C)CC3)CC2)ccc1Nc1ncc2c(n1)N(C1CCCC1)c1ccccc1C(=O)N2C", 76),
    ("CCn1cc(-c2ccnc3[nH]c(-c4cccc(CN(C)C)c4)cc23)c(-c2ccc(NC(=O)N(C)C)cc2)n1", 35),
    ("COC(=N)c1nc2ccc3ncnc(Nc4ccc(OC)cc4F)c3c2s1", 30),
    ("CCN1CCN(c2ccc(Nc3cc(N(C)C(=O)Nc4c(Cl)c(OC)cc(OC)c4Cl)ncn3)cc2)CC1", 55),
    ("O=C1N/C(=N/c2ccccc2F)S/C1=C\\c1ccc(C(=O)O)cc1", 16),
    ("O=C(Nc1ccc(Cl)cc1)Nc1cccc(-c2cccc(N3CCCC3)n2)c1", 8),
    ("S=C(NCCCc1c[nH]cn1)NCCCN(Cc1ccc(Cl)c(Cl)c1)c1ccc(Br)cn1", 8),
    ("CN1CCN(C(=O)C(C)(C)c2ccc(C(=O)Nc3cn4cc(-c5cc(C(C)(C)C)cc(C(C)(C)C)c5)ccc4n3)cc2)CC1", 29),
    ("O=C(Nc1cccnn1)N1CCC(=Cc2cccc(Oc3ccc(C(F)(F)F)cn3)c2)CC1", 24),
    ("CNC(=O)c1ccc(Nc2nc(OC3CCCC3)c3c(-c4ccc5nc(C)oc5c4)c[nH]c3n2)c(OC)c1", 40),
    ("COc1cccc2cc(-c3nc([C@H]4CC[C@H](C(=O)O)CC4)n4ncnc(N)c34)[nH]c12", 3),
    ("CN1C2CCC1CC(OC(c1ccc(F)cc1)c1ccc(F)cc1)C2.Cl (configuration not stated)", 4),
]

* * *

Below, each entry is listed alongside its reported Population Membrane Permeable-Phenotype (%).
test system: Fibroblast; experiment: Multiplex assay against human fibroblast; format: toxicity, cell-based; conditions: 24 h, 1 µM, compound concentration 1 uM, replicate 1
reported metric: Population Membrane Permeable-Phenotype (%)

# compound, readout value
data = [
    ("CCNc1cc(N[C@H]2CC[C@H](O)CC2)nc(Nc2ccc3c(ccn3Cc3ccccc3)c2)n1", 0),
    ("COc1ccc(S(=O)(=O)N(CCO)c2ccccc2CN(C)C/C=C/c2ccc(Cl)cc2)cc1.O=P(O)(O)O", 5),
    ("C=CCn1c(=O)c2cnc(Nc3ccc(N4CCN(C)CC4)cc3)nc2n1-c1cccc(C(C)(C)O)n1 [ADAVOSERTIB]", 6),
    ("CCOc1cc2ncc(C#N)c(Nc3ccc(OCc4ccccn4)c(Cl)c3)c2cc1NC(=O)/C=C/CN(C)C [NERATINIB]", 32),
    ("CCCn1c(=O)c2[nH]c(-c3cnn(Cc4cccc(C(F)(F)F)c4)c3)nc2n(CC)c1=O [GS 6201]", 32),
    ("O=C(Nc1ccc(-n2nc(-c3cccnc3)cc2C(F)(F)F)cn1)c1ccc(-c2ccccc2)c(F)c1 [BI 2049]", 32),
    ("COc1cc(N2CCN(C)CC2)ccc1Nc1ncc2c(n1)N(C)c1ccccc1C(=O)N2C", 17),
    ("Cl.Oc1ccc2c3c1O[C@H]1c4[nH]c5c(c4C[C@@]4(O)[C@@H](C2)N(CC2CC2)CC[C@]314)C[C@@]1(O)[C@H]2Cc3ccc(O)c4c3[C@@]1(CCN2CC1CC1)[C@H]5O4", 27),
]

* * *

test system: HEK-293T; assay: Multiplex assay against HEK293T; assay type: toxicity, cell-based; details: human, 12 h, 1 µM, compound concentration 1 uM, replicate 2

# compound, Population Pyknosed Nuclei (%)
measured = [
    ("CCN1CCN(c2ccc(Nc3cc(N(C)C(=O)Nc4c(Cl)c(OC)cc(OC)c4Cl)ncn3)cc2)CC1 [INFIGRATINIB]", "11%"),
    ("CNC(=O)c1ccc(Nc2nc(OC3CCCC3)c3c(-c4ccc5nc(C)oc5c4)c[nH]c3n2)c(OC)c1", "19%"),
    ("CCCS(=O)(=O)Nc1ccc(F)c(C(=O)c2c[nH]c3ncc(Cl)cc23)c1F [PLX-4720]", "5%"),
    ("O=C1NC(=O)C(c2cnc3ccccn23)=C1c1cn2c3c(cc(F)cc13)CN(C(=O)N1CCCCC1)CC2 [LY-2090314]", "62%"),
]

* * *

system: Fibroblast; assay: Multiplex assay against human fibroblast; format: toxicity, cell-based; details: 24 h, 10 µM, compound concentration 10 uM, replicate 1
reported metric: Population Hoechst High Intensity Objects (%)

# compound, study target, measure unit, readout value
rows = [
    ("CN1CCN(C(=O)C(C)(C)c2ccc(C(=O)Nc3cn4cc(-c5cc(C(C)(C)C)cc(C(C)(C)C)c5)ccc4n3)cc2)CC1 [T3-CLK-N]", "Fibroblast", "%", 10),
    ("Cn1nc(C(F)(F)F)cc1-c1cnc(N2CCc3cc(S(=O)(=O)Nc4c(F)cc(Cl)cc4F)cc(N4CCCC4=O)c32)nc1 [TP-020]", "Fibroblast", "%", 10),
    ("O=C1N/C(=N/c2ccccc2F)S/C1=C\\c1ccc(C(=O)O)cc1", "Fibroblast", "%", 20),
    ("CCc1cccc(CC)c1NC(=O)c1nn(C)c2c1CCc1cnc(Nc3ccc(N4CCN(C)CC4)cc3OC)nc1-2", "Fibroblast", "%", 13),
    ("O=C(Nc1ccc(Cl)cc1)Nc1cccc(-c2cccc(N3CCCC3)n2)c1", "Fibroblast", "%", 31),
    ("CCN1CCN(c2ccc(Nc3cc(N(C)C(=O)Nc4c(Cl)c(OC)cc(OC)c4Cl)ncn3)cc2)CC1 [INFIGRATINIB]", "Fibroblast", "%", 15),
    ("Cc1cn(-c2cc(NC(=O)c3ccc(C)c(Nc4nccc(-c5cccnc5)n4)c3)cc(C(F)(F)F)c2)cn1 [NILOTINIB]", "Fibroblast", "%", 50),
    ("C=C1/C(=C\\C=C2/CCC[C@]3(C)[C@@H]([C@H](C)/C=C/[C@H](C)C(C)C)CC[C@@H]23)C[C@@H](O)C[C@@H]1O [DOXERCALCIFEROL]", "Fibroblast", "%", 9),
    ("COC(=N)c1nc2ccc3ncnc(Nc4ccc(OC)cc4F)c3c2s1", "Fibroblast", "%", 13),
    ("CCc1cccc(CC)c1NC(=O)c1nn(C)c2c1CCc1cnc(Nc3ccc(C(=O)NC4CCN(C)CC4)cc3OC(F)(F)F)nc1-2", "Fibroblast", "%", 30),
    ("Cc1ccc(C(=O)Nc2cccc(C(F)(F)F)c2)cc1Nc1nc(-c2cccnc2)nc2c1cnn2C", "Fibroblast", "%", 10),
    ("CCCS(=O)(=O)Nc1ccc(F)c(C(=O)c2c[nH]c3ncc(Cl)cc23)c1F [PLX-4720]", "Fibroblast", "%", 18),
    ("COc1cc2ncnc(Nc3ccc(F)c(Cl)c3)c2cc1NC(=O)/C=C/CN1CCCCC1 [DACOMITINIB ANHYDROUS]", "Fibroblast", "%", 18),
    ("O=C(Nc1ccc(-n2nc(-c3cccnc3)cc2C(F)(F)F)cn1)c1ccc(-c2ccccc2)c(F)c1 [BI 2049]", "Fibroblast", "%", 8),
    ("COc1cc(N2CCN(C)CC2)ccc1Nc1ncc2c(n1)N(C)c1ccccc1C(=O)N2C", "Fibroblast", "%", 20),
    ("CCn1c(=O)c(-c2ccc(-c3cncs3)cc2Cl)cc2cnc(Nc3ccc(N4CCN(C)CC4)cc3)nc21", "Fibroblast", "%", 53),
]

Values from ChEMBL document CHEMBL4689842
